- system under test: EBP (Homo sapiens, UniProt Q15125)
- Construct: HEK293T cells were utilized as the source of EBP enzyme; endogenous in cells
- Sequence (Q15125 whole entry): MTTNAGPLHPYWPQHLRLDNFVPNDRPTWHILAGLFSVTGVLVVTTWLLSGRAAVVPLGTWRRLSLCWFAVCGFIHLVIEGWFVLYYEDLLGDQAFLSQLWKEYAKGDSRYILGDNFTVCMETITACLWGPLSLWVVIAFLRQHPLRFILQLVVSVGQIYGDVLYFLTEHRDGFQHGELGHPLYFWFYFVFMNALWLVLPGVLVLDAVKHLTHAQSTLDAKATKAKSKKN
- test details: EBP Functional Assay (EBP immunoaffinity LC-MS assay)
- condition info: EBP enzyme from HEK293T cells; 30 min with inhibitor, then zymosterol-d5, 37° C., 4 h; percent conversion to dehydrolathosterol-d5 by LC-APCI MRM MS
IC50 reference
assay endpoint: IC50

> print(dat)
                                   molecule  value.reported
1  Cc1cc(C(F)(F)F)cnc1S(=O)(=O)N1CC2(CN(C3CCOCC3)C2)C1 [Example 221]  250 to 4000 nM
2  CC1(O)CCC(N2CC3(C2)CN(S(=O)(=O)c2cnc(C(F)(F)F)cc2C2CC2)C3)CC1 (single isomer, unassigned) [Example 124]   100 to 250 nM
3  O=S(=O)(c1ccc(OC(F)F)cc1)N1CCOC2(CCN(C3CCOCC3)C2)C1 (racemic) [Example 2]   100 to 250 nM
4  COC1CCC(N2CC3(C2)CN(S(=O)(=O)c2ccc(C(F)F)nc2C2CC2)C3)CC1 (single isomer, unassigned) [Example 118]   100 to 250 nM
5  CCc1cc(C(F)(F)F)ncc1S(=O)(=O)N1CC2(CN(CC3CCOCC3)C2)C1 [Example 126]  250 to 4000 nM
6  O=S(=O)(c1cc(F)cc(F)c1)N1CCOC2(CCN(C3CCOCC3)C2)C1 (stereo not shown) [Example 13]        < 100 nM
7  O=S(=O)(c1ccc(OC(F)F)cc1)N1CCO[C@]2(CCN(C3CC4(COC4)C3)C2)C1 (single isomer, unassigned) [Example 27]   100 to 250 nM

* * *

IC50 reference
- system under test: EBP (Homo sapiens)
- Construct: HEK293T cells were utilized as the source of EBP enzyme; endogenous in cells
- test details: EBP Functional Assay (EBP immunoaffinity LC-MS assay)
- condition info: EBP enzyme from HEK293T cells; 30 min with inhibitor, then zymosterol-d5, 37° C., 4 h; percent conversion to dehydrolathosterol-d5 by LC-APCI MRM MS
assay endpoint: IC50

> print(dat)
                                   molecule  assay.endpoint  value.reported
1  Cc1nc(C(F)(F)F)ccc1S(=O)(=O)N1CC2(CN(C3CCC(C)(O)CC3)C2)C1 (stereo not shown) [Example 222]            IC50   100 to 250 nM
2  Cc1nc(C(F)(F)F)ccc1S(=O)(=O)N1CC2(CN(C3CCOCC3C)C2)C1 (stereo not shown) [Example 145]            IC50        < 100 nM
3  Cc1nc(C(F)(F)F)ccc1S(=O)(=O)N1CC2(CN(C3CCCOC3)C2)C1 (stereo not shown) [Example 151]            IC50  250 to 4000 nM
4  Cc1nc(C(C)(C)F)ccc1S(=O)(=O)N1CC2(CN(C3CCOCC3)C2)C1 [Example 93]            IC50        < 100 nM

* * *

- system under test: EBP (Homo sapiens)
- Construct: HEK293T cells were utilized as the source of EBP enzyme; endogenous in cells
- test details: EBP Functional Assay (EBP immunoaffinity LC-MS assay)
- condition info: EBP enzyme from HEK293T cells; 30 min with inhibitor, then zymosterol-d5, 37° C., 4 h; percent conversion to dehydrolathosterol-d5 by LC-APCI MRM MS
assay endpoint: IC50

> print(dat)
                                    compound  value.reported
 1  O=S(=O)(c1ccc(OC(F)F)cc1)N1CCOC2(CN(C3CCOCC3)C2)C1  250 to 4000 nM
 2  Cn1nc(C(F)(F)F)cc1S(=O)(=O)N1CC2(CN(CC3CCOC(C)(C)C3)C2)C1 (racemic) [Example 198]        < 100 nM
 3  O=S(=O)(c1ccc(OC(F)F)cc1)N1CCC2(CCN(C3CCOCC3)C2)CC1        < 100 nM
 4  COc1ncc(Cl)cc1S(=O)(=O)N1CC2(CN(C3CCOCC3)C2)C1        < 100 nM
 5  CC(C1CCOCC1)N1CC2(C1)CN(S(=O)(=O)c1cc(C(F)(F)F)nn1C)C2 (racemic)        < 100 nM
 6  Cc1nc(C(F)(F)F)ccc1S(=O)(=O)N1CC2(CN(C(C)C3(C)CCOCC3)C2)C1 (centres unmarked)   100 to 250 nM
 7  Cc1nc(OC(F)F)ccc1S(=O)(=O)N1CC2(CN(C3CC4(COC4)C3)C2)C1   100 to 250 nM
 8  Cc1ccc(S(=O)(=O)N2CC3(CN(C4CCOCC4)C3)C2)c(C)c1        < 100 nM
 9  COC1CCC(N2CC3(C2)CN(S(=O)(=O)c2ccc(C(F)F)nc2C2CC2)C3)CC1 (single isomer, unassigned) [Example 117]  250 to 4000 nM
10  Cc1nc(C(F)(F)F)ccc1S(=O)(=O)N1CC2(CN(CC3CCOC3)C2)C1 (single isomer, unassigned) [Example 160]   100 to 250 nM
11  O=S(=O)(c1ccc(OC(F)F)cc1)N1CCOC2(CCN(C3CCOC3)CC2)C1 (racemic)  250 to 4000 nM

* * *

- system under test: EBP (Homo sapiens)
- Construct: HEK293T cells were utilized as the source of EBP enzyme; endogenous in cells
- test details: EBP Functional Assay (EBP immunoaffinity LC-MS assay)
- condition info: EBP enzyme from HEK293T cells; 30 min with inhibitor, then zymosterol-d5, 37° C., 4 h; percent conversion to dehydrolathosterol-d5 by LC-APCI MRM MS
IC50 reference
assay endpoint: IC50

> print(dat)
                                    compound  value.reported
 1  Cc1nc(C(C)(F)F)ccc1S(=O)(=O)N1CC2(CN(CC3CCOC3)C2)C1 (centres unmarked)        < 100 nM
 2  Cn1nc(C(F)(F)F)cc1S(=O)(=O)N1CC2(CN(CC3(C)CCOCC3)C2)C1   100 to 250 nM
 3  Cc1nc(C(F)(F)F)ccc1S(=O)(=O)N1CC2(CN(C(C)C3COC3)C2)C1 (racemic) [Example 155]        < 100 nM
 4  Cn1nc(C(F)(F)F)cc1S(=O)(=O)N1CC2(CN(CC3CC4(COC4)C3)C2)C1        < 100 nM
 5  O=S(=O)(c1ccc(C(F)F)nc1C1CC1)N1CC2(CN(C3CC4(COC4)C3)C2)C1   100 to 250 nM
 6  Cn1nc(C(C)(F)F)cc1S(=O)(=O)N1CC2(CN(CC3CCOCC3)C2)C1   100 to 250 nM
 7  O=S(=O)(c1ccc(OC(F)F)cc1)N1CCOC2(CCN(C3CCOCC3)CC2)C1   100 to 250 nM
 8  Cn1nc(C(F)(F)F)cc1S(=O)(=O)N1CCC2(CN(C3CCOCC3)C2)C1        < 100 nM
 9  Cc1nc(C(F)(F)F)ccc1S(=O)(=O)N1CCC2(CC1)CN(C1CCOCC1)C2        < 100 nM
10  Cc1cc(C(F)(F)F)ncc1S(=O)(=O)N1CC2(CN(CC3CCOCC3)C2)C1        < 100 nM
11  COC(=O)C(C)(C)CCN1CC2(C1)CN(S(=O)(=O)c1ccc(C(F)(F)F)nc1C)C2  250 to 4000 nM
12  O=S(=O)(c1ccc(C(F)(F)F)cc1C(F)(F)F)N1CC2(CN(CC3CCOCC3)C2)C1   100 to 250 nM
13  Cc1cc(S(=O)(=O)N2CCC3(CCN(C4CCOCC4)C3)CC2)n(C)n1   100 to 250 nM
14  CCc1nc(C(F)(F)F)ccc1S(=O)(=O)N1CC2(CN(C3CCOCC3)C2)C1        < 100 nM
15  Cc1ccc(S(=O)(=O)N2CCC3(CC2)CN(C2CCOCC2)C3)c(C)c1  250 to 4000 nM
16  O=S(=O)(c1cnc(C2CC2)s1)N1CCOC2(CCN(C3CCOCC3)C2)C1 (centres unmarked)   100 to 250 nM
17  Cc1ccc(S(=O)(=O)N2CC3(C[C@H]4CC[C@@H](C3)N4CC(C)(C)O)C2)c(C)c1        < 100 nM
18  Cc1cc(C(F)(F)F)nc(C)c1S(=O)(=O)N1CC2(CN(CC3COC3)C2)C1   100 to 250 nM
19  O=S(=O)(c1ccc(OC(F)F)cc1)N1CCOC2(CCN(C3CC4(COC4)C3)C2)C1 (racemic)        < 100 nM
20  COC(C)CCCN1CC2(C1)CN(S(=O)(=O)c1ccc(C(F)(F)F)nc1C)C2 (centres unmarked)   100 to 250 nM
21  Cc1nc(C(C)(F)F)ccc1S(=O)(=O)N1CC2(CN(CC3(C)COC3)C2)C1        < 100 nM
22  CC(C)c1cc(S(=O)(=O)N2CC3(CN(C4CCOCC4)C3)C2)n(C)n1        < 100 nM
23  Cn1nc(C(F)(F)F)cc1S(=O)(=O)N1CC2(CN(CC3COCCO3)C2)C1 (racemic)  250 to 4000 nM
